Reported values: AC50 for Motilin receptor (Homo sapiens, UniProt O43193), one per item.

Solved entries (count: 8):
CCC1(C2=CCCCCC2)C(=O)NC(=O)NC1=O; > 10 µM
COc1cc(Nc2c(C#N)cnc3cc(OCCCN4CCN(C)CC4)c(OC)cc23)c(Cl)cc1Cl; > 10 µM
CN(C)CCCN1c2ccccc2Sc2ccccc21; > 10 µM
CC(C)NNC(=O)c1ccncc1; > 30 µM
CC(C)(Oc1ccc(C2CC2(Cl)Cl)cc1)C(=O)O (centres undefined) [CIPROFIBRATE]; > 30 µM
CC(C)c1c(C(=O)Nc2ccccc2)c(-c2ccccc2)c(-c2ccc(F)cc2)n1CC[C@@H](O)C[C@@H](O)CC(=O)O; > 10 µM
C[C@H]1C[C@@H]2[C@H]([C@@H](O)C[C@@]3(C)[C@H]2CC[C@]3(O)C(=O)CO)[C@@]2(C)C=CC(=O)C=C12; > 10 µM
CCC(C(=O)O)c1ccc(CC(C)C)cc1 (centres undefined); > 30 µM

Alright, here's another compound for you.
AC50 of O=C1CCC(N2C(=O)c3ccccc3C2=O)C(=O)N1 (centres undefined) [THALIDOMIDE] , assay on Motilin receptor (Homo sapiens, UniProt O43193), is > 10 µM

* * *

Reported values: AC50 for Sodium-dependent serotonin transporter (Homo sapiens, UniProt P31645), one per item.

CC(C)NCC(O)COc1ccc(COCCOC(C)C)cc1 (centres undefined); > 10 µM

// `CCCC(=O)N1CCCN(c2nc(N)c3cc(OC)c(OC)cc3n2)CC1` : AC50 value = > 30 µM

// `C=C1CC[C@@]2(O)[C@H]3Cc4ccc(O)c5c4[C@@]2(CCN3CC2CC2)[C@H]1O5` : AC50 value = > 30 µM

// `O=C(O)CCn1c2c(c3ccccc31)C[C@H](NS(=O)(=O)c1ccc(F)cc1)CC2` : AC50 value = > 30 µM

// `CO/N=C(\C(=O)N[C@@H]1C(=O)N2C(C(=O)[O-])=C(C[N+]3(C)CCCC3)CS[C@H]12)c1csc(N)n1` : AC50 value = > 300 µM

// `CS(=O)(=O)Nc1cc2occ(NC=O)c(=O)c2cc1Oc1ccccc1` : AC50 value = > 30 µM

// CC(=O)NS(=O)(=O)c1ccc(N)cc1 [SULFACETAMIDE] : AC50 value = > 10 µM

// `CCCS(=O)(=O)Nc1ccc(F)c(C(=O)c2c[nH]c3ncc(-c4ccc(Cl)cc4)cc23)c1F` : AC50 value = > 30 µM

// `O=C(O)Cc1cn(-c2ccccc2)nc1-c1ccc(Cl)cc1` : AC50 value = > 30 µM

* * *

# study_target: Alpha-1A adrenergic receptor (Homo sapiens, UniProt P35348); also: assay procedure not described here
# Sequence (P35348 whole entry): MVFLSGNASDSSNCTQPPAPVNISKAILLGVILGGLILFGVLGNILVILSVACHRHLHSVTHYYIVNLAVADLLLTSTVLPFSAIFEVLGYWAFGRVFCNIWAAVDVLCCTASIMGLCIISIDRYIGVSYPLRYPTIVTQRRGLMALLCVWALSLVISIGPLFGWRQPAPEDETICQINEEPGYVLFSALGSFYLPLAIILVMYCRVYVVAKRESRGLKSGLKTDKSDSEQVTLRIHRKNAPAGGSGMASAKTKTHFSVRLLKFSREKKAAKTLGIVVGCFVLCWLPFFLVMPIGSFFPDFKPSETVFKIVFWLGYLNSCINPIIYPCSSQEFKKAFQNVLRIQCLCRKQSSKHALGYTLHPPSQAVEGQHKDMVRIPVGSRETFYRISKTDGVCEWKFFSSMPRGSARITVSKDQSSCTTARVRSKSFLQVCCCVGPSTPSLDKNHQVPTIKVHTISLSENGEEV
assay_metric: AC50

Solved entries (count: 5):
O=C(CCCCCCC(=O)Nc1ccccc1)NO; > 10 µM
Cc1ccc(-c2nc3ccc(C)cn3c2CC(=O)N(C)C)cc1; > 10 µM
CN(C)C(=O)OC1N=C(c2ccccc2)c2cc(Cl)ccc2N(C)C1=O (stereo not drawn); > 10 µM
CN(C)CCCN1c2ccccc2Sc2ccccc21; 0.0138 µM
C[C@H]1O[C@H](O[C@H]2[C@H](O)[C@@H](O)[C@@H](O[C@H]3[C@H](O)[C@@H](O)C(O)O[C@@H]3CO)O[C@@H]2CO)[C@H](O)[C@@H](O)[C@@H]1N[C@H]1C=C(CO)[C@@H](O)[C@H](O)[C@H]1O (stereo partly drawn); > 10 µM

// CN(CCOc1ccc(NS(C)(=O)=O)cc1)CCc1ccc(NS(C)(=O)=O)cc1 [DOFETILIDE] : AC50 value = > 10 µM

// O=C(Nc1ccccc1)OCC(CN1CCCCC1)OC(=O)Nc1ccccc1 (stereo not drawn) : AC50 value = > 10 µM

// `CCc1nn(CCCN2CCN(c3cccc(Cl)c3)CC2)c(=O)n1CCOc1ccccc1` : AC50 value = 0.13 µM

* * *

Target sequence: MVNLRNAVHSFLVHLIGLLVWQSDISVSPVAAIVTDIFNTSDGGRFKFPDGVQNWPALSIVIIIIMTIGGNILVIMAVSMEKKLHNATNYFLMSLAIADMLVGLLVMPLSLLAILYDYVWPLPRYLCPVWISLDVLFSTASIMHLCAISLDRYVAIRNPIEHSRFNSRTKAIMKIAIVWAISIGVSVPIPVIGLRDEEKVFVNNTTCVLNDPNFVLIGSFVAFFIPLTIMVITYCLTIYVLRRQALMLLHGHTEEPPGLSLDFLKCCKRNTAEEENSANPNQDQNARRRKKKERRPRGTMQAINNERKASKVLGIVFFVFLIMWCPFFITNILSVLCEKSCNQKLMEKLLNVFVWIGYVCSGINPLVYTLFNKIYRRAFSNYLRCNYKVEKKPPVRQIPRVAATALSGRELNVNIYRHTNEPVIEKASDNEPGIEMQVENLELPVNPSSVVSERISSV
As shown below, each of these compounds has a reported AC50 value.

OCCN1CCN(CCCN2c3ccccc3C=Cc3ccccc32)CC1 [OPIPRAMOL]; > 30 µM

// NS(=O)(=O)c1cc2c(cc1Cl)NCNS2(=O)=O [HYDROCHLOROTHIAZIDE] : AC50 value = > 10 µM

// C1COC(NC(C2CC2)C2CC2)=N1 [RILMENIDINE] : AC50 value = > 30 µM

* * *

Reported values: AC50 for Glutamate receptor ionotropic, NMDA 1 (Rattus norvegicus), one per item.

C[C@H]1O[C@H](O[C@H]2[C@H](O)[C@@H](O)[C@@H](O[C@H]3[C@H](O)[C@@H](O)C(O)O[C@@H]3CO)O[C@@H]2CO)[C@H](O)[C@@H](O)[C@@H]1N[C@H]1C=C(CO)[C@@H](O)[C@H](O)[C@H]1O (some centres not stated); > 10 µM

AC50 of `O=C(NC[C@H]1CN(c2ccc(N3CCOCC3=O)cc2)C(=O)O1)c1ccc(Cl)s1` , assay on Glutamate receptor ionotropic, NMDA 1 (Rattus norvegicus), is > 30 µM

AC50 of `C#CCN(C)[C@H](C)Cc1ccccc1` , assay on Glutamate receptor ionotropic, NMDA 1 (Rattus norvegicus), is > 10 µM

AC50 of `Cc1c(Cl)cccc1Nc1ccccc1C(=O)O` , assay on Glutamate receptor ionotropic, NMDA 1 (Rattus norvegicus), is > 30 µM

AC50 of CC(=O)N(CC(O)CO)c1c(I)c(C(=O)NCC(O)CO)c(I)c(C(=O)NCC(O)CO)c1I (configuration not stated) [IOHEXOL] , assay on Glutamate receptor ionotropic, NMDA 1 (Rattus norvegicus), is > 10 µM

AC50 of CCOc1cc(N)c([N+](=O)[O-])cc1C(=O)NC1CCN(CC2CC=CCC2)CC1 (configuration not stated) [CINITAPRIDE] , assay on Glutamate receptor ionotropic, NMDA 1 (Rattus norvegicus), is > 30 µM

* * *

# study_target: 5-hydroxytryptamine receptor 1A (Homo sapiens, UniProt P08908); also: assay procedure not described here
# Sequence (P08908 whole entry): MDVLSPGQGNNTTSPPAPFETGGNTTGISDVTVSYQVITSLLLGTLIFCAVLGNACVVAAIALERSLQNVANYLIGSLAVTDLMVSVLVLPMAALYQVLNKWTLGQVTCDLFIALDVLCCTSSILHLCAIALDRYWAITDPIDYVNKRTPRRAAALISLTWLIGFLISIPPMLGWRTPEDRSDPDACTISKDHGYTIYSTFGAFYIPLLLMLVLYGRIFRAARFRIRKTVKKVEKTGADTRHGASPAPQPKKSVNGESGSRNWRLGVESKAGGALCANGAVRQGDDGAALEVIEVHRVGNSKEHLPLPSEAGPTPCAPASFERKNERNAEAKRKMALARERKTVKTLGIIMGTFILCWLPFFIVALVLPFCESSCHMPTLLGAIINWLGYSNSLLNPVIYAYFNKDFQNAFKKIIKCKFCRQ
# Format: functional, cell-based
As shown below, each of these molecules has a reported AC50 value.

// `CN(C)[C@@H]1C(O)=C(C(N)=O)C(=O)[C@@]2(O)C(O)=C3C(=O)c4c(O)ccc(Cl)c4[C@@H](O)[C@H]3C[C@@H]12` : AC50 value = > 10 µM

// `C=C1CC[C@@]2(O)[C@H]3Cc4ccc(O)c5c4[C@@]2(CCN3CC2CC2)[C@H]1O5` : AC50 value = > 30 µM

// NC(=O)c1cnccn1 [PYRAZINAMIDE] : AC50 value = > 30 µM

// `O=C(NC[C@H]1CN(c2ccc(N3CCOCC3=O)cc2)C(=O)O1)c1ccc(Cl)s1` : AC50 value = > 30 µM

// `COC(=O)[C@H]1[C@@H](OC(=O)c2ccccc2)C[C@@H]2CC[C@H]1N2C` : AC50 value = > 30 µM

// `CCCCCCCCCCCC[N+](C)(C)CCOc1ccccc1` : AC50 value = 22 µM

// COc1ccccc1OCC(O)COC(N)=O (stereo not drawn) : AC50 value = > 10 µM

// `COC(=O)N[C@H](C(=O)N[C@@H](Cc1ccccc1)[C@@H](O)CN(Cc1ccc(-c2ccccn2)cc1)NC(=O)[C@@H](NC(=O)OC)C(C)(C)C)C(C)(C)C` : AC50 value = > 10 µM
